abundance fitness listing for selected variants.
B1: POU domain, class 4, transcription factor 1, residues 266 to 347; numbered along this chain, Q01851 (parent)
chain: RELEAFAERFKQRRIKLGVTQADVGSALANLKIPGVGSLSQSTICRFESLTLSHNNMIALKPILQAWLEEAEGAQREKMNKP

Variants of: B1
TEST PROTOCOL: abundance fitness (aPCA) (normalised: wild type 0, dead -1); higher = more abundant; growth selection in yeast, the domain comes from the species named
PROTOCOL CONDITIONS: Homo sapiens
I only need the number, thanks.

Here is how some variants turned out for abundance fitness.
MUTATION NAME	abundance fitness
A71K	0.072
F6W	-0.139
T20E	-0.124

Give a short answer stating reported abundance fitness for E8M .
-0.069

Give a short answer stating reported abundance fitness for I15G .
-0.286

Give a short answer stating reported abundance fitness for A29L .
-0.092

Give a short answer stating reported abundance fitness for Q21E .
-0.023
